These data points were gathered from PubChem BioAssay AID1345082.

- test_summary: Cytotoxic Profiling in NIH 3T3 Cell Line of Diverse Libraries Using Quantitative High-Throughput Screening; note: nearly all actives have a fitted effect of over 55% in size
- settings: NIH 3T3 viability, CellTiter-Glo ATP luminescence, 48-72 h; series mostly up to 96.7 µM
The whole screen tested about 94,000 compounds, of which about 4,000 (4.3%) were called active. Inconclusive results (about 29%) are left out. Calls come from the whole dose curve; as a rule, active = well fitted inhibition curve with a large enough effect; inconclusive = small, poorly fitted or top-dose-only effect; inactive = no such curve, though single readings can be large or run the other way. The sample holds actives, similar compounds and a random draw of the others, so the mix is not that of the screen.
Thanks in advance; please answer with one of these: active, inactive

Check out these entries, answers already filled in.
compound="CC1(c2ccccc2)N(Cc2ccccc2F)C(=O)OC12CCN(Cc1c[nH]c3ccccc13)CC2 (stereo unspecified)" assigned_class=active
compound=CC1=C[C@@H](CC#N)[C@H](C(C)C)C[C@H]1CC(=O)N1CCN(C)CC1 assigned_class=inactive
compound="Cc1nc(CCNC(=O)C2CCCN(c3nc(-c4ccccc4)nc4c3CCC4)C2)n[nH]1 (stereo unspecified)" assigned_class=inactive
compound="CN(CCO)CC1(O)CCCN(Cc2ccccc2F)C1=O (stereo unspecified)" assigned_class=inactive
compound="CN1CCC(NC(=O)C2CCCN(S(=O)(=O)c3ccccc3)CCC(=O)NCC2)CC1 (stereo unspecified)" assigned_class=inactive

Asked: For COc1ccccc1-c1onc(C)c1C(=O)NCc1ccc(Cl)cc1 , which call appears in the assay record?
Given back: inactive

Asked: For CC(C)c1ccc([S+](=O)([O-])N2CCN(c3cccc(CN(C)[S+](C)(=O)[O-])c3F)CC2)cc1 , which call appears in the assay record?
Given back: active

Asked: For CNC(=O)[C@@H]1CN(C(=O)c2cccc(OC)c2)C[C@H]1COC , which call appears in the assay record?
Given back: inactive

Asked: For Cc1ccc(-c2ccccc2CN2CCN([S+](=O)([O-])c3cccc(C(F)(F)F)c3)CC2)cc1Cl , which call appears in the assay record?
Given back: inactive

Asked: For COc1ccc(CN2CCC3(CC2)OCCN(Cc2ccccc2F)C3=O)cc1O , which call appears in the assay record?
Given back: inactive
